// data source = paper PMC5707354

Target: Cargo binding domain of myosin VI (CBD 1060-1253) (human)
Assay: FRET or BRET; Alexa555-NMVITAIL titrated to FITC-CBD (1 uM); 25 C, 50 mM Tris-HCl pH 7.5, 150 mM NaCl, 1 mM DTT; quadratic binding fit
reported-property: Kd (µM)
Field: numeric (µM). Do not append units.

QUERY: Tell me the measured Kd of N-terminal tail domain of myosin VI (NMVITAIL 814-1060) (domain or fragment) , please.
RESULT: 4.5

* * *

Target: N-terminal tail domain of myosin VI (NMVITAIL 814-1060) (human)
Assay: FRET or BRET; AF555-labelled pool titrated against the FITC-labelled pool of the same construct, no additive; monomer to dimer; 25 C, 50 mM Tris-HCl pH 7.5, 150 mM NaCl, 1 mM DTT
reported-property: Kd (µM)
Your answer should be a plain number; it is taken to be in µM.

QUERY: What value of Kd has been reported for the following substance? N-terminal tail domain of myosin VI (NMVITAIL 814-1060) (domain or fragment)
RESULT: 3.1
